Molecular target: T1, GLP-1R (INS1e assay) (UniProt P32301 22-463, limits assumed)
T1 sequence (looked up): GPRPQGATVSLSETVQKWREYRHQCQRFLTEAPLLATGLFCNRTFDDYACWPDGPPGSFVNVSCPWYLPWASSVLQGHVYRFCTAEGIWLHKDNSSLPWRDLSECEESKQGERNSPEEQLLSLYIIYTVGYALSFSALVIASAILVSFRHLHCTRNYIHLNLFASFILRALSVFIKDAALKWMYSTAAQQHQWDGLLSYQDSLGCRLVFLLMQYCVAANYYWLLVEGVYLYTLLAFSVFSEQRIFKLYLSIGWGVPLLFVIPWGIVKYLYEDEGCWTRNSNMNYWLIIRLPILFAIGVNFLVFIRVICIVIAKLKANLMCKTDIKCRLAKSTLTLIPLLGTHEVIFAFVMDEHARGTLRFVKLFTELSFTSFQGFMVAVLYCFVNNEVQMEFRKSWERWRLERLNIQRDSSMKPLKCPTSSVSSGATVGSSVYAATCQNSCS
Test: cell-based or functional assay
Starred links: 1 amine or outer side, 2 acyl side, 3 side chain; linkers in the order of their positions; H or OH if unused. Non-standard residues stand in square brackets, D forms with d. Groups on a side chain read outwards from the residue. Primed or numbered codes have the meaning given here. No end group written: not given here. *: point of attachment. Dodecylbenzoate = dodecylbenzoyl lipid group; γGlu = O=C(O)[C@H](CCC(=O)[*:2])N[*:1]; Stearoyl = CCCCCCCCCCCCCCCCCC(=O)*; Palmitoyl = CCCCCCCCCCCCCCCC(=O)*; αMeF = C[C@](N)(Cc1ccccc1)C(=O)O; αMeK = C[C@](N)(CCCCN)C(=O)O; αMeS = C[C@](N)(CO)C(=O)O; PEG2′ = not defined here; Aib = CC(C)(N)C(=O)O; Ahx = NCCCCCC(=O)O
test-readout: INS1e assay EC50 GLP-1 R n1 (nM)

(I) H[Aib]EGS[αMeF]TSDV[αMeS]S[αMeF]LEGEAA[αMeK]E[αMeF]IA[αMeF]VVK([Ahx-Ahx-Dodecylbenzoate])GG-NH2 [SEQ ID NO 177]
(II) H[Aib]EGS[αMeF]TSDV[αMeS]S[αMeF]LEGEAA[αMeK]E[αMeF]IA[αMeF]VV[αMeK]GK([PEG2′-PEG2′-γGlu-Stearoyl])-NH2 [SEQ ID NO 99]
Prompt: Lower INS1e assay EC50 GLP-1 R n1: I or II ? Record your answer as the label of the chosen record.
Response: I

(P) H[Aib]EGS[αMeF]TSDVSK([PEG2′-PEG2′-PEG2′-Stearoyl])YLEGEAAEE[αMeF]IA[αMeF]VVEGG-NH2 [SEQ ID NO 62]
(Q) H[Aib]EGS[αMeF]TSDV[αMeS]S[αMeF]LEGEAAK([PEG2′-PEG2′-γGlu-Palmitoyl])E[αMeF]IA[αMeF]VV[αMeK]GG-NH2 [SEQ ID NO 109]
Prompt: // compare: P vs Q , metric INS1e assay EC50 GLP-1 R n1, want the smaller Refer to your chosen item by its label in the answer.
Response: P
(P: 0.209 nM, Q: 8.35 nM)
